system: VchCAST RNA-guided transposition machinery (E. coli BL21(DE3) host, lacZ target); assay: relative integration efficiency (T-RL orientation) vs wild-type transposon end (log2 (normalized fold change)); transposon end mutated: right end (5 bp flank + 75 bp right end); higher = more efficient transposition
Recorded measurements of relative integration efficiency (log2), one per entry

>  <monomer-sequence>
ACATTTGTTGATACAACCATTAAATAATAATTCCACCCATAAATTGATAATTATCACACCCAATTTAACTATAACGCTCTGATCATAGTCAGACCAACATTGCTACGACCCGTATTCGCACCGACAC

>  <relative integration efficiency (log2)>
-1.71

$$$$
>  <monomer-sequence>
ACATTTGTTGATACAACCATATATTGATATCTCCAACCATAAAGTGATATTTATCACAACCATAAAGTGATATTTACTCTGATCATAGTCAGACCAACATTGCTACGACCCGTATTCGCACCGACAC

>  <relative integration efficiency (log2)>
-0.409

$$$$
>  <monomer-sequence>
ACATTTGTTGATACAACCATAAAATGTATTTTACACCCATAAATTGATAATTATCACACCCATAAATTGATATTGCCTCTGATCATAGTCAGACCAACATTGCTACGACCCGTATTCGCACCGACAC

>  <relative integration efficiency (log2)>
-0.938

$$$$
>  <monomer-sequence>
ACATTTGTTGATACACCCATAAATTGATATTGCCAACCATATATTGATATCTCTCACAACCATAAAGTGATATTTACTCTGATCATAGTCAGACCAACATTGCTACGACCCGTATTCGCACCGACAC

>  <relative integration efficiency (log2)>
-1.21

$$$$
>  <monomer-sequence>
ACATTTGTTGATACCACCATAAAATGATAATTACACCCATACATTGATAATTATCACACCCAATTTAACTATAACGCTCTGATCATAGTCAGACCAACATTGCTACGACCCGTATTCGCACCGACAC

>  <relative integration efficiency (log2)>
-2.1

$$$$
>  <monomer-sequence>
ACATTTGTTCAACCATAAAATGATAATTACACCCATAAATTGATAATTATCACACCCATAAATTGATATTGCCTCTGATCATAGTCAGACCAACATTGCTACGACCCGTATTCGCACCGACACTGAC

>  <relative integration efficiency (log2)>
-7.3

$$$$
>  <monomer-sequence>
ACATTAGTCGATACAACCATAAAATGATAATTACACCCATAAATTGATCATTATCACACCCAATTTAACTATAACGCTCTGATCATAGTCAGACCAACATTGCTACGACCCGTATTCGCACCGACAC

>  <relative integration efficiency (log2)>
-7.26

$$$$
>  <monomer-sequence>
ACATTTGTTGATACAACCATAAAATGATAATTAATAATTATTTATAACACCCATAAATTGATAATTATCACACCCATAAATTGATATTGCCTCTGATCATAGTCAGACCAACATTGCTACGACCCGT

>  <relative integration efficiency (log2)>
-3.19

$$$$
>  <monomer-sequence>
ACATTTGTTGATACAACCATAAAATGATAATTACAAAACTAAATTGATAATTATCACACCCATAAATTGATATTGCCTCTGATCATAGTCAGACCAACATTGCTACGACCCGTATTCGCACCGACAC

>  <relative integration efficiency (log2)>
-2.29

$$$$
>  <monomer-sequence>
ACATTTGTGGATACAACCATAAAATGATAATTCACCCATCAATTGATAATTATCACACCCCAATTTAACTATAACGCTCTGATCATAGTCAGACCAACATTGCTACGACCCGTATTCGCACCGACAC

>  <relative integration efficiency (log2)>
-2.89

$$$$
